Target: LNX1_2, Q8TBB1
Sequence (Q8TBB1 371-470): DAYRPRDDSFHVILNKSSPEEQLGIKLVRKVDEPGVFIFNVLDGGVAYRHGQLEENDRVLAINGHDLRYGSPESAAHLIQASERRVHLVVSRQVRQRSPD
Experiment: holdup assay
Design: key: below the threshold = too weak to quantify, mostly under pKd 3.1 to 4
Details: plain residues with an end cap or a label only (N-terminal biotin on a linker: ado-ado)
Outcome Measure: pKd

Answered cases to consult:
binder="VLYPREGTEV [FOXI1, Q12951]" val=3.6
binder="LESTTVGTSV [KARS1, Q15046]" val="below the threshold"
binder="NVYGIESVKI [GRIA2, P42262]" val="below the threshold"
binder="ARSAAASNYV [CLDN4, O14493]" val="below the threshold"
binder="KKMLQRRTLL [OR8G1, Q15617]" val="below the threshold"

The reported pKd of the binder NTANRRTTPV [CACNG2, Q9Y698] was below the threshold

The reported pKd of the binder APIAGFSSFV [SDK2, Q58EX2] was below the threshold

The reported pKd of the binder VKRNSKETVV [MARCHF3, Q86UD3] was 3.68

The reported pKd of the binder PSVGSKKTVL [REELD1, A0A1B0GV85] was below the threshold

The reported pKd of the binder KSRVAFFEEL [NF2, P35240;P35240-1] was below the threshold

Reference for the values: paper PMC9482650
